Data provenance: patent US11986471B2

Tested on: HAP1 MTAP-intact
Test: SDMA in-cell western assay, HAP1 MTAP-intact cell line
Format: cell-based
Settings: Homo sapiens
Excerpt: Table 1a also indicates IC50 values in an MTAP-isogenic cell line pair for exemplary compounds in an SDMA in-cell western assay (columns 7-8). HAP1 MTAP-intact is a cell line in which endogenous levels of MTAP are expressed, and HAP1 MTAP-deleted is an MTAP-null cell line. […] Compounds with a ratio in the SDMA in-cell western assay of equal to or greater than 3 fold are considered MTAP-selective.
pIC50: −log10 of the molar value.
A collection of compounds and their measured pIC50

COMPOUND	OBSERVED_PROPERTY	OBSERVED_RESULT
CC(=O)N1CCC(Nc2cc(C(=O)NC[C@H](O)CN3CCc4c(ccc(OCc5ocnc5C)c4Cl)C3)ncn2)CC1	pIC50	≤ 5.00
CCC(=O)N1CCN(c2nc(NC3COC3)cc(C(=O)NC[C@H](O)CN3CCc4c(ccc(OCc5cnco5)c4Cl)C3)n2)CC1	pIC50	≤ 5.00
Cc1ncoc1COc1ccc2c(c1)CCN(C[C@@H](O)CNC(=O)c1cc(NC3COC3)nc(N3CCN(C(=O)C(C)C)CC3)n1)C2	pIC50	5.00 to 6.00
CC(=O)N1CCC(Nc2cc(C(=O)NC[C@H](O)CN3CCc4cc(OCc5conc5C)ccc4C3)ncn2)CC1	pIC50	≤ 5.00
CC(=O)N1CCC(Nc2cc(C(=O)NC[C@H](O)CN3CCc4cc(OCc5ocnc5C)ccc4C3)cc(C3CCCCC3)n2)CC1	pIC50	> 6.00

[Q] Name the recorded pIC50 for Cc1ncoc1COc1ccc2c(c1C)CCN(C[C@@H](O)CNC(=O)c1cc(NC3COC3)nc(N3CCN(C)CC3)n1)C2 .
[A] ≤ 5.00

[Q] pIC50 for CC(=O)N1CCC(Nc2cc(C(=O)NC[C@H](O)CN3CCc4cc(OCc5ocnc5C)ccc4C3)cc(N3CCN(C)CC3)n2)CC1 ?
[A] ≤ 5.00

[Q] I am curious: what pIC50 value has been reported for CC(=O)N1CC(Nc2cc(C(=O)NC[C@H](O)CN3CCc4c(ccc(OCc5cnco5)c4Cl)C3)nc(C(C)(C)C)n2)C1 ?
[A] ≤ 5.00

[Q] Reported pIC50 for Cc1ncoc1COc1ccc2c(c1Cl)CCN(C[C@@H](O)CNC(=O)c1cc(NC3CCCCC3)ncn1)C2 : what is it?
[A] ≤ 5.00

[Q] Bench note: what pIC50 did Cc1ncoc1COc1ccc2c(c1Br)CCN(C[C@@H](O)CNC(=O)c1cc(NC3CCCC3)ncn1)C2 show?
[A] ≤ 5.00

[Q] May I ask what pIC50 has been recorded for CCN(C)c1nc(NC2COC2)cc(C(=O)NC[C@H](O)CN2CCc3c(ccc(OCc4ocnc4C)c3C)C2)n1 ?
[A] ≤ 5.00

[Q] Dear colleague, I am looking for the recorded pIC50 of the following compound: O=C(NC[C@H](O)CN1CCc2c(ccc(OCc3cnco3)c2Cl)C1)c1ccnc(NC2CCC2)c1F
[A] ≤ 5.00

[Q] Any idea what pIC50 was measured for O=C(NC[C@H](O)CN1CCc2c(ccc(OCc3cnco3)c2Cl)C1)c1ccnc(NC2CCC(F)C2)c1 (some centres unmarked) ?
[A] ≤ 5.00

[Q] Given CCC(=O)N1CCN(c2cc(C(=O)NC[C@H](O)CN3CCc4cc(OCc5ocnc5C)ccc4C3)cc(NC3CCC3)n2)CC1 , state its recorded pIC50.
[A] > 6.00
